Reported values: IC50 for Phosphotyrosine protein phosphatase (Mycobacterium tuberculosis, UniProt A0A045ISB3), one per item.
State just the number; it will be interpreted in nM.

(Q) Requested field: IC50. Item: `CC(=O)c1cc(C)c(O)c(Cc2c(O)cc(-c3ccc(O)c(O)c3)oc2=O)c1O`
(A) 160

Next molecule, IC50 to be filled in.
(Q) So what does the record say about IC50 for `CC(=O)c1cc(C)c(O)c(CC2=C(C)C(=O)C(O)=C(C)C2=O)c1O` ?
(A) 1370

====

System: Mycobacterium tuberculosis
assaySummary: Antimycobacterial activity against Mycobacterium tuberculosis H37Rv
Assay type: functional, organism-based
Please assign rule not met whenever MIC is at or above 10 µM, and rule met whenever it is below.

Before answering, review these 5 worked examples.
(Q) Criterion: MIC strictly below 10 µM. Is it met by `CC(=O)O[C@H]1C[C@H]2[C@]3(C)CC[C@H]4C(C)(C)CCC[C@]4(C)[C@H]3C[C@@H](O)[C@]2(C)[C@@H]2C1=CC[C@H]2OC(C)=O` ?
(A) rule not met

(Q) Queued: CC(=O)O[C@H]1C[C@@]2(C)[C@@H](CC[C@H]3[C@@]4(C)C=CC(=O)[C@@H](C)C4[C@H](OC(C)=O)C(=O)[C@@]32C)/C1=C(\CCC=C(C)C)C(=O)O (stereo partly specified)
(A) rule met

(Q) Entry to check: `C=C(CC[C@@H](C)[C@H]1CC[C@H]2[C@@H]3C(C=O)=C4C[C@@H](O)CC[C@]4(C)[C@H]3CC[C@]12C)C(C)C`
(A) rule not met

(Q) What about this molecule? `O=C1CCCN2[C@@H](CC1)C[C@]13CN4CCCC/C=C\CC[C@](O)(C=C(c5nccc6c5[nH]c5ccc(O)cc56)[C@@H]1CC4)[C@H]23`
(A) rule not met

(Q) Same question for `O[C@]12C=C(c3nccc4c3[nH]c3ccccc34)[C@@H]3CCN(CCCC/C=C\CC1)C[C@@]31C[C@@H]3/C=C\CCCCN3[C@H]12` please.
(A) rule met

Next:
(Q) Lab log: compare recorded MIC with 10 µM; is it strictly lower for `CCCCCC(=O)c1c(O)cc(CCCCC)oc1=O` ?
(A) rule met

====

Recorded inhibition, one value per entry.
targetOfAssay: Phosphotyrosine protein phosphatase (Mycobacterium tuberculosis) (UniProt A0A045ISB3)
Sequence (A0A045ISB3 as listed by the source): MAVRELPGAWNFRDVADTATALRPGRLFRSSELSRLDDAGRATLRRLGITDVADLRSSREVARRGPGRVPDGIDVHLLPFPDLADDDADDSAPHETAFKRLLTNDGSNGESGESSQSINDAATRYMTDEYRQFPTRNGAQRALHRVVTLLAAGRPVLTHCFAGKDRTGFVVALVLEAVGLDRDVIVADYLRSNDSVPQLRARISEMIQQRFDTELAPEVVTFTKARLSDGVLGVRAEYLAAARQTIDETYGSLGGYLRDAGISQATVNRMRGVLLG
assaySummary: Inhibition of Mycobacterium tuberculosis Protein Tyrosine Phosphatase B at 100 uM relative to control

Consider the following illustrative entries.
(Q) Find the recorded inhibition belonging to `COc1cc(O)c2c(c1O)C(=O)c1cc(C)ccc1C2=O` and report it.
(A) 17.5 to 48.8%

(Q) Also check `COC1=CC(=O)c2c(cc3c(c2O)C[C@@H](O)[C@@](C)(O)C3)C1=O`
(A) 17.5 to 48.8%

(Q) Now try `CCCCCCSC1=C(SCCCCCC)C(=O)c2c(O)c3c(c(O)c2C1=O)C[C@](C)(O)[C@H](O)[C@H]3O` .
(A) 56.2%

(Q) Also, `CNC1=CC(=O)c2c(O)c3c(c(O)c2C1=O)C[C@](C)(O)[C@H](O)[C@H]3O` please.
(A) 17.5 to 48.8%

(Q) Try `COC1=CC(=O)c2c(O)c3c(c(O)c2C1=O)C[C@]1(C)OC(C)(C)O[C@@H]1[C@H]3O` next.
(A) 17.5 to 48.8%

(Q) Note, next up: `CCCNC1=CC(=O)c2c(O)c3c(c(O)c2C1=O)C[C@](C)(O)[C@H](O)[C@H]3O`
(A) 17.5 to 48.8%

(Q) And `COc1cc(O)c2c(c1O)C(=O)C1=C(C[C@@H](O)[C@@](C)(O)C1)C2=O` ?
(A) 17.5 to 48.8%

(Q) Similarly, `CNC1=CC(=O)c2c(O)c3c(c(O)c2C1=O)C[C@](C)(O)[C@H](O)C3` ?
(A) 9.7%

Next:
(Q) Quick check: inhibition of `COC1=CC(=O)c2c(O)c3c(c(O)c2C1=O)C[C@](C)(O)[C@H](O)[C@H]3O` ?
(A) 37%

====

Tested on: Mycobacterium tuberculosis
assaySummary: Antimycobacterial activity against Mycobacterium tuberculosis H37Rv
Format: functional, organism-based
We begin with a simple list: items and their reported log10 MIC.
Scale: log10; quantity: MIC; unit before log: µM

Record excerpt, results attached:
(Q) Consider the molecule `COC(=O)N[C@H]1[C@@H](C)O[C@@H](O[C@H]2C/C=C(\C)[C@@H]3C=C[C@@H]4[C@@H](O[C@@H]5C[C@@H](O[C@@H]6C[C@@H](O)[C@@H](O[C@H]7C[C@@H](C)[C@H](OC)[C@H](O)C7)[C@H](C)O6)[C@@H](O)[C@H](C)O5)[C@@H](C)C[C@H](C)[C@H]4[C@]3(C)C(=O)C3=C(O)[C@@]4(C[C@@H](C)C(CO)=C[C@H]4/C=C/2C)OC3=O)C[C@]1(C)N` and give its measured log10 MIC.
(A) 1.44

(Q) Likewise for `O=C1CCCN2[C@@H](CC1)C[C@]13CN4CCCC/C=C\CC[C@](O)(C=C(c5nccc6c5[nH]c5ccccc56)[C@@H]1CC4)[C@H]23` ?
(A) 0.83

More entries:
(Q) Name the recorded log10 MIC for `C=C(CC[C@@H](C)[C@H]1CC[C@H]2[C@@H]3CC=C4C[C@@H](O)CC[C@]4(C)[C@H]3CC[C@]12C)C(C)C` .
(A) 2.48

(Q) // next record `C=C(CC[C@@H](C)[C@H]1CC[C@H]2[C@@H]3[C@@H](C=O)[C@]4(O)C[C@@H](O)CC[C@]4(C)[C@H]3CC[C@]12C)C(C)C`
(A) 1.42

(Q) Please do the same for `COC(=O)N[C@H]1[C@@H](C)O[C@@H](O[C@H]2C/C=C(\C)[C@@H]3C=C[C@@H]4[C@@H](O[C@@H]5C[C@@H](O[C@@H]6C[C@@H](O)[C@@H](O[C@H]7C[C@@H](C)[C@H](OC)[C@H](O)C7)[C@H](C)O6)[C@@H](O)[C@H](C)O5)[C@@H](C)C[C@H](C)[C@H]4[C@]3(C)C(=O)C3=C(O)[C@@]4(C[C@@H](C)C(COC(C)=O)=C[C@H]4/C=C/2C)OC3=O)C[C@]1(C)N` as well.
(A) 1.43

====

Quick reference: inhibition of the listed items.
targetOfAssay: Phosphotyrosine protein phosphatase (Mycobacterium tuberculosis)
Sequence (A0A045ISB3 whole entry): as the sequence (A0A045ISB3 as listed by the source) above
assaySummary: Inhibition of Mycobacterium tuberculosis Protein Tyrosine Phosphatase B at 100 uM relative to control

Use these answered entries as a reference point.
(Q) Which inhibition value is on record for `COC1=CC(=O)c2c(O)c3c(c(O)c2C1=O)C[C@]1(C)OCO[C@@H]1[C@H]3O` ?
(A) 17.5 to 48.8%

(Q) Subsequent entry: COC1=CC(=O)c2c(O)c3c(c(O)c2C1=O)C[C@]1(C)OC(C=C(C)C)O[C@@H]1[C@H]3O (stereo partly drawn)
(A) 17.5 to 48.8%

We next turn to a different compound, shown below.
(Q) Could you tell me which inhibition is on file for `COC1=CC(=O)c2c(O)c3c(c(O)c2C1=O)C[C@]1(C)OC(=O)O[C@@H]1[C@H]3O` ?
(A) 17.5 to 48.8%

====

Tested on: Mycobacterium tuberculosis
assaySummary: Antimycobacterial activity against Mycobacterium tuberculosis H37Rv
Type: functional, organism-based
propertyName: MIC (µM)
# unit: µM | format: bare number

Look over these answered cases.
(Q) For the compound `O=CC1=C[C@@]2(O)CC/C=C\CCCCN3CC[C@@H]1[C@]1(C[C@@H]4/C=C\CCCCN4[C@H]12)C3` , what MIC is on record?
(A) 73.7

(Q) Another: `COC(=O)N[C@H]1[C@@H](C)O[C@@H](O[C@H]2C/C=C(\C)[C@@H]3C=C[C@@H]4[C@@H](O[C@@H]5C[C@@H](O[C@@H]6C[C@@H](O)[C@@H](O[C@H]7C[C@@H](C)[C@H](OC)[C@H](O)C7)[C@H](C)O6)[C@@H](O)[C@H](C)O5)[C@@H](C)C[C@H](C)[C@H]4[C@]3(C)C(=O)C3=C(O)[C@@]4(C[C@@H](C)C(CO)=C[C@H]4/C=C/2C)OC3=O)C[C@]1(C)[N+](=O)[O-]`
(A) 13.5

Others:
(Q) Sample `O=C1CCCN2[C@@H](CC1)C[C@]13CN4CCCC/C=C\CC[C@](O)(C=C(c5nccc6c5[nH]c5c(O)cccc56)[C@@H]1CC4)[C@H]23` — what was its MIC?
(A) 0.69

Data origin, for the record: ChEMBL document CHEMBL4400517
